Method: Serum stability test
Format: in vitro ADME
Particulars: human, 25% human serum (supernatant after centrifugation)
Readout kind: half-life

Consider N=C(N)NCCC[C@H](NC(=O)[C@H](CCCNC(=N)N)NC(=O)[C@H](CCCNC(=N)N)NC(=O)[C@H](CCCNC(=N)N)NC(=O)[C@H](CCCNC(=N)N)NC(=O)[C@H](CCCNC(=N)N)NC(=O)[C@H](CCCNC(=N)N)NC(=O)[C@H](CCCNC(=N)N)NC(=O)[C@@H](N)CCCNC(=N)N)C(=O)O [R9] . Its measured half-life is ~30 min

Consider N=C(N)NCCC[C@H](NC(=O)[C@H](CCCNC(=N)N)NC(=O)[C@H](CCCNC(=N)N)NC(=O)[C@H](CCC(N)=O)NC(=O)[C@H](CCCNC(=N)N)NC(=O)[C@H](CCCNC(=N)N)NC(=O)[C@H](CCCCN)NC(=O)[C@H](CCCCN)NC(=O)[C@H](CCCNC(=N)N)NC(=O)CNC(=O)[C@@H](N)Cc1ccc(O)cc1)C(=O)O [Tat] . Its measured half-life is ~30 min
